The origin of these recorded values is PubChem BioAssay (NCI).

Test system: SF-295 CNS
Measurement protocol: NCI tumour cell line growth inhibition, 48 h
Assay metric: TGI

> print(dat)
                                    molecule  assay.metric  recorded.value
 1  CP(=O)(CCSc1ccccc1)c1ccccc1 (stereo not given)           TGI        > 100 µM
 2  COc1cc([C@@H]2c3cc4c(cc3[C@@H](NC(=O)c3ccc(C(C)=O)cc3)C3COC(=O)[C@@H]32)OCO4)cc(OC)c1O (stereo not given in full)           TGI        > 100 µM
 3  COC(=O)/C1=C/C2CC(/C=C(/c3ccccc3)C(=O)O1)C2           TGI        > 100 µM
 4  NC(N)=NS(=O)(=O)c1ccc(NC(=O)c2ccc(Cl)c3c(Nc4ccc(S(=O)(=O)N=C(N)N)cc4)c4ccccc4nc23)cc1           TGI        > 100 µM
 5  O=C(CCNC(=O)OCc1ccccc1)OCCCNC(=O)OCc1ccccc1           TGI        > 100 µM
 6        Nc1nc(N)c2ncn(Cc3c(Cl)cccc3Cl)c2n1           TGI        > 100 µM
 7  O=[N+]([O-])/C(Cl)=C(\Sc1ccccc1)C(Cl)=C(Cl)Cl           TGI         8.92 µM
 8  CC(C)(C)c1ccc(NC(=O)c2cc(=O)c3ccccc3[nH]2)c(C(C)(C)C)c1O           TGI         20.2 µM
 9  CN1CCN(c2ccc3nc(-c4ccc5nc(-c6ccc(C(F)(F)F)cc6)[nH]c5c4)[nH]c3c2)CC1           TGI         9.51 µM
10  c1ccc(SCCP(CCP(c2ccccc2)c2ccccc2)c2ccccc2)cc1 (stereo not given)           TGI        > 100 µM

====

Test system: NCI-H23 lung
Measurement protocol: NCI tumour cell line growth inhibition, 48 h
Assay metric: GI50

> print(dat)
                                   compound  target.of.assay  recorded.value
1          COc1ncnc2c1ncn2C/C(Br)=C(\Br)CCl     NCI-H23 lung         3.16 µM
2  CC(C)(C)c1ccc(NC(=O)c2cc(=O)c3ccccc3[nH]2)c(C(C)(C)C)c1O     NCI-H23 lung         3.33 µM
3  Cc1cc2cc(Oc3ccnc(Nc4cccc(CS(=O)(=O)NCCN(C)C)c4)n3)ccc2[nH]1     NCI-H23 lung          8.8 µM
4                  N#C/C(=C/c1cccs1)c1cccs1     NCI-H23 lung        > 100 µM
5  COc1cc(C(C)c2cc3c(cc2OCCOCCOc2cc4c(cc2C(C)c2cc(OC)c(OC)c(OC)c2)OCO4)OCO3)cc(OC)c1OC (stereo not drawn)     NCI-H23 lung        > 100 µM
6  C=C(C)[C@@H]1CC[C@]2(C)[C@H](CC=C3[C@@H]4CC(C)(C)CC[C@]4(C(=O)OC)CC[C@]32C)[C@@]1(C)CC/C(N)=N/O     NCI-H23 lung         2.84 µM
7  O=c1cc(-c2ccccc2)oc2cc(OCc3cn(Cc4ccc(F)cc4)nn3)cc(O)c12     NCI-H23 lung          7.7 µM
8  O=C1c2ccccc2C(=O)c2c1c(NCCNCCO)c1cc[nH]c1c2NCCNCCO     NCI-H23 lung          7.9 µM
